Hi there, I'd appreciate the recorded pEC50 for every entry that follows.
- System: PG nanodiscs
- procedureSummary: Phospholipid nanodisc 1H NMR CPMG coordination assay, PG nanodiscs
- Assay type: binding
- settings: concentration of nanodisc coordinating 50 % of the SSA cation; SSA 100 µM; Hill Plot fit, Vmax fixed 100 %; read-out: EC50 PG, cationic SSA component
Numbers only, as −log10 of the molar value.

Examples with their reported pEC50 follow.
# compound, experimentalEndpoint, observedMeasurement
data = [
    ("Cc1ccc2nc(NC(=O)NCS(=O)(=O)O)sc2c1 [SSA 7]", "pEC50", 5.47),
    ("Cc1ccc2nc(-c3ccc(NC(=S)NCS(=O)(=O)O)cc3)sc2c1 [SSA 12]", "pEC50", 6.05),
    ("Cc1ccc2nc(-c3ccc(NC(=O)NCCC(=O)O)cc3)sc2c1 [SSA 9]", "pEC50", 5.57),
    ("Cc1ccc2nc(-c3ccc(NC(=O)NCS(=O)(=O)O)cc3)sc2c1 [SSA 6]", "pEC50", 5.54),
    ("Cc1ccc2nc(-c3ccc(NC(=O)NCC(=O)O)cc3)sc2c1 [SSA 11]", "pEC50", 5.55),
]

Batch request: pEC50 per item, same order as input.
1. O=C(NCS(=O)(=O)O)Nc1ccc(-c2nc3ccccc3s2)cc1 [SSA 8]
2. Cc1ccc2nc(-c3ccc(NC(=O)NCCCS(=O)(=O)O)cc3)sc2c1 [SSA 10]

[5.51, 5.94]
